# Parameters: species or system rats
# cond: rat, in vivo, po, 50 mg/kg
assay_readout: Cmax (nM)

Some solved entries appear below for comparison.
{"columns": ["compound", "Cmax, nM"],
 "data": [
  ["Cn1c(CNc2ccc(C(N)=NO)cc2)nc2cc(C(=O)N(CCC(=O)O)c3ccccn3)ccc21 [Dabigatran amidoxime (2)]", 2760],
  ["CCCCCCOC(=O)NC(=N)c1ccc(NCc2nc3cc(C(=O)N(CCC(=O)OCC)c4ccccn4)ccc3n2C)cc1 [Dabigatran etexilate]", 3480]
]}

1: [H]/N=C(/N)c1ccc(NCc2nc3cc(C(=O)N(CCC(=O)O)c4ccccn4)ccc3n2C)cc1 [Dabigatran]
2: CCOC(=O)CCN(C(=O)c1ccc2c(c1)nc(CNc1ccc(/C(N)=N/OC(=O)CCC(=O)O)cc1)n2C)c1ccccn1
Query block: // which entry reports the smaller Cmax, 1 or 2 ? Pick one and reply with its label.
Result block: 1
(1: 240 nM, 2: 2770 nM)

---

# experimental_system: albumin (Homo sapiens, UniProt P02768)
# Sequence (P02768 25-609, species assumed): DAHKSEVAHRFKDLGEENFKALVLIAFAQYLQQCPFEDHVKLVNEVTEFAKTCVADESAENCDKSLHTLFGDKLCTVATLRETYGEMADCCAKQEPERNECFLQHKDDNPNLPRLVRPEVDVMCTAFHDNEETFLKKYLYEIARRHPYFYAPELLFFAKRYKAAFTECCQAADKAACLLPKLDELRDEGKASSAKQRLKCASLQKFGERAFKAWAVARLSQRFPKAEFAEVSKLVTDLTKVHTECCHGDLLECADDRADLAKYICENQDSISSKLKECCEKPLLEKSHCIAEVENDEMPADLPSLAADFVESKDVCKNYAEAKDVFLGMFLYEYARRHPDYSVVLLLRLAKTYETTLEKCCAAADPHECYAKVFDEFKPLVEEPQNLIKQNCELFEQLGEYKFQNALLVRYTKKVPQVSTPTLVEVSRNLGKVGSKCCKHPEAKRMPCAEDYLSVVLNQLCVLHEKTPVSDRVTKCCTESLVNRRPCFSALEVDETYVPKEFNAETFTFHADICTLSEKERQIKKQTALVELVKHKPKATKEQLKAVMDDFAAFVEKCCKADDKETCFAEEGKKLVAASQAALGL
# assay_method_text: Plasma protein binding (4% albumin solution, ultrafiltration)
# Type: in vitro ADME
# cond: 10, 25 and 50 μM, 15 min at 37° C.
# Experimental: The plasma protein binding was determined at three different concentrations (10, 25, and 50 μM). A 4% albumin solution was used as the protein solutions. 50 μl of a 10 times concentrated substance solution were in each case pipetted to 450 μl of the protein solution. Incubation ensued over 15 min in a shaking water bath at 37° C. […] The filtrate was analyzed by HPLC. […]
assay_readout: fraction unbound at 15 min

Query block: Reported fraction unbound at 15 min, molecule `CCOC(=O)CCN(C(=O)c1ccc2c(c1)nc(CNc1ccc(/C(N)=N/OC(=O)CCC(=O)O)cc1)n2C)c1ccccn1` : ____
Result block: ~0.78

---

Documented t1/2 across a set of molecules
# Set-up: species or system rats
# cond: rat, in vivo, po, 50 mg/kg

Solved entries (count: 3):
{"columns": ["molecule", "t1/2"],
 "data": [
  ["Cn1c(CNc2ccc(C(N)=NO)cc2)nc2cc(C(=O)N(CCC(=O)O)c3ccccn3)ccc21 [Dabigatran amidoxime (2)]", "108.1 ± 56.2^+ min"],
  ["CCOC(=O)CCN(C(=O)c1ccc2c(c1)nc(CNc1ccc(/C(N)=N/OC(=O)CCC(=O)O)cc1)n2C)c1ccccn1", "69.3 ± 30.4^+ min"],
  ["[H]/N=C(/N)c1ccc(NCc2nc3cc(C(=O)N(CCC(=O)O)c4ccccn4)ccc3n2C)cc1 [Dabigatran]", "58.0 ± 31.1^+ min"]
]}

Now for a further molecule.
Query block: Requested field: t1/2. Item: CCCCCCOC(=O)NC(=N)c1ccc(NCc2nc3cc(C(=O)N(CCC(=O)OCC)c4ccccn4)ccc3n2C)cc1 [Dabigatran etexilate]
Result block: 87.7 ± 27.5 min

---

# Parameters: species or system rats
# cond: rat, in vivo, po, 50 mg/kg
assay_readout: tmax (min)

I: [H]/N=C(/N)c1ccc(NCc2nc3cc(C(=O)N(CCC(=O)O)c4ccccn4)ccc3n2C)cc1 [Dabigatran]
II: CCCCCCOC(=O)NC(=N)c1ccc(NCc2nc3cc(C(=O)N(CCC(=O)OCC)c4ccccn4)ccc3n2C)cc1 [Dabigatran etexilate]
III: Cn1c(CNc2ccc(C(N)=NO)cc2)nc2cc(C(=O)N(CCC(=O)O)c3ccccn3)ccc21 [Dabigatran amidoxime (2)]
Query block: Sort ascending by tmax. Use the labels to give the requested order.
Result block: III, II, I
